test system: T. gondii RH strain (RH-Tub-eYFP) tachyzoites; assay: microbe, parasite or virus in culture; type: cell-based, Toxoplasma gondii; conditions: Toxoplasma gondii, 72 h, read-out: Tg_72h_%Growth_Rep2
Counter-ions that a name gives are not always drawn.
observed-property: percent parasite growth at 2 µg/mL (%)
Answer with a number only, understood to be in %.

Example entries and their recorded answers appear below.
molecule | assay-system | observed-property | observed-measurement
CO[C@H]1C[C@H](O[C@@H]2/C(C)=C/C[C@@H]3C[C@@H](C[C@]4(CC[C@H](C)[C@@H](C5CCCCC5)O4)O3)OC(=O)[C@@H]3C=C(C)/C(=N/O)[C@H]4OC/C(=C\C=C\[C@@H]2C)[C@]43O)O[C@@H](C)[C@@H]1O [selamectin, reference compound] | T. gondii RH strain (RH-Tub-eYFP) tachyzoites | percent parasite growth at 2 µg/mL | 78.2
NC(=O)C=Cc1ccccc1 [Cinnamamide] | T. gondii RH strain (RH-Tub-eYFP) tachyzoites | percent parasite growth at 2 µg/mL | 87.3
CCC[C@@H]1C[C@@H](C(=O)N[C@@H]([C@H]2O[C@H](SC)[C@H](O)[C@@H](O)[C@H]2O)[C@H](C)Cl)N(C)C1 [Clindamycin hydrochloride, reference compound] | T. gondii RH strain (RH-Tub-eYFP) tachyzoites | percent parasite growth at 2 µg/mL | 28.6
O=C(O)CCC(=O)OC[C@@H](NC(=O)C(Cl)Cl)[C@H](O)c1ccc([N+](=O)[O-])cc1 [Chloramphenicol succinate] | T. gondii RH strain (RH-Tub-eYFP) tachyzoites | percent parasite growth at 2 µg/mL | 97.4
CC[C@H]1OC(=O)C[C@@H](O)[C@H](C)[C@@H](O[C@@H]2O[C@H](C)[C@@H](O)[C@H](N(C)C)[C@H]2O)[C@@H](CCN2CCCCC2)C[C@@H](C)C(=O)/C=C/C(C)=C/[C@@H]1CN1CCCCC1 | T. gondii RH strain (RH-Tub-eYFP) tachyzoites | percent parasite growth at 2 µg/mL | 85.6

Record "CN(C)[C@@H]1C(O)=C(C(N)=O)C(=O)[C@@]2(O)C(O)=C3C(=O)c4c(O)cccc4[C@@](C)(O)[C@H]3C[C@@H]12" . Reported percent parasite growth at 2 µg/mL: 101

The reported value for CN[C@H](CC(C)C)C(=O)N[C@H]1C(=O)N[C@@H](CC(N)=O)C(=O)N[C@H]2C(=O)N[C@H]3C(=O)N[C@H](C(=O)N[C@H](C(=O)O)c4cc(O)cc(O)c4-c4cc3ccc4O)[C@H](O)c3ccc(c(Cl)c3)Oc3cc2cc(c3O[C@@H]2O[C@H](CO)[C@@H](O)[C@H](O)[C@H]2O[C@H]2C[C@](C)(N)[C@H](O)[C@H](C)O2)Oc2ccc(cc2Cl)[C@H]1O [Vancomycin hydrochloride] in terms of percent parasite growth at 2 µg/mL is 80.9

Entry CN(C)[C@H]1C(O)=C(C(N)=O)C(=O)[C@@]2(O)C(O)=C3C(=O)c4c(O)cccc4[C@@](C)(O)[C@H]3C[C@@H]12 [Epitetracycline hydrochloride] ; percent parasite growth at 2 µg/mL = 100

percent parasite growth at 2 µg/mL recorded for this molecule, "C[C@H]1[C@H](C)CC[C@]2(C(=O)O)CC[C@]3(C)C(=CC[C@@H]4[C@@]5(C)CC[C@H](O)C(C)(C)[C@@H]5CC[C@]43C)[C@H]12" , is 92.8
